Origin of measurements: PubChem BioAssay

test: mitochondrial membrane potential change in A549 cells, profiling panel, cell-based, JC-1 fluorescence, basal, 24 h, 100 nL (AID 1138); conditions: higher = more signal;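 note: A549 lung adenocarcinoma cells under basal conditions with no added stimulus; test concentration not given here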
Class Satisfied: z-score at least 0.2. Class Not satisfied: z-score below 0.2.

[in] Quick check, z-score >= 0.2? CC(C)c1ccc(NN2C(C(O)C(C)C)C=CC3C(=O)N(c4ccccc4)C(=O)C32)cc1 (configuration not stated)
[out] Not satisfied

[in] Is the recorded value of z-score equal to or greater than 0.2 for this compound? "C=C(/C(=C/C[C@@H](OC(C)=O)c1ccccc1OCCO)c1cc(C(=O)OC)ccc1OC)C(C)C"
[out] Satisfied

[in] Could you tell me if the measured z-score of "COCCOC(=O)N1C(=O)[C@@]2(c3cc(C#CC4=CCCCC4)ccc31)[C@H](c1ccc(OCCO)cc1)N1[C@H](c3ccccc3)[C@H](c3ccccc3)OC(=O)[C@H]1[C@@H]2C(=O)N1CCCCCCC1" reaches 0.2 or more?
[out] Not satisfied

[in] Please tell me: is the compound "COC(=O)[C@@H]1N=C(c2ccc(OCCCO)cc2)O[C@@H]1c1ccccc1CN=[N+]=[N-]" at or over 0.2 in terms of z-score?
[out] Satisfied

[in] Textbook exercise: given the entry CC(C)C[C@H]1NC(=O)[C@@]23C(=O)N[C@@H](Cc4ccccc4)C2[C@H](C)[C@@]2(C)O[C@H]2C3/C=C/C/C=C\CNC(=O)[C@@H]2CCCN2C1=O (some centres not stated) , state whether its z-score is greater than or equal to 0.2.
[out] Not satisfied

[in] For this compound, is measured z-score 0.2 or higher? "C=C(COC)/C(=C/C[C@@H](OC(C)=O)c1ccccc1OCCO)c1cc(C(=O)OC)ccc1OC"
[out] Satisfied

[in] Hi team, for O=C1OCCC=C[C@H]2OC34C=CCN(CCN5CCOCC5)C(=O)[C@H]3N(CCCO)C(=O)[C@@H]4C12 (some centres not stated) , is the recorded z-score at or above 0.2?
[out] Not satisfied

----------
Kindly supply the reported z-score values for the records listed here.
test: P. aeruginosa biofilm formation inhibitors, primary screen, strain PAO1, LB-PBS medium, absorbance 600 nm (AID 1176); note: test concentration not given here; details: P. aeruginosa PAO1 growth/biofilm, A600, 12 h; higher = more signal
Lab note: jot down the number only; don't add units.

[in] GET /values?readout=z-score&item= "CO[C@H]1O[C@H](CO)[C@@H](OC(=O)Nc2ccc3c(c2)OCO3)[C@@H]2OC(=O)[C@@H](Cc3ccccc3)C/C=C/C[C@H](Cc3ccccc3)C(=O)O[C@@H]12"
[out] 0.509

[in] If you can, please state the reported z-score value of "Cc1ccc(F)cc1S(=O)(=O)N[C@@H]1CCN(Cc2ccc3[nH]ccc3c2)C1" .
[out] -0.189

[in] # input molecule: "C=CC[C@]1(C(=O)OC)N=C(c2ccc(OCCCO)cc2)O[C@H]1c1ccccc1N=[N+]=[N-]" ; wanted: its z-score
[out] 0.935

[in] Recorded z-score for "C=CCOC(=O)[C@H]1[C@@H]2C(=O)O[C@@H](c3ccccc3)[C@@H](c3ccccc3)N2[C@@H](c2ccc(OCCOC(=O)[C@@H]3C[C@@H]4C(=O)N[C@@H](Cc5ccccc5)C(=O)N4[C@@H]3c3ccc(O)cc3)cc2)[C@]12C(=O)Nc1ccccc12" , please?
[out] 3.66

[in] # get_value(readout='z-score', item= "C=CC[C@]1(C(=O)NCc2ccccc2)COC(c2ccc(OCCCO)cc2)=N1" )
[out] -0.0025

[in] Look up z-score: N#Cc1ccc(C(O)C2C=CC3C(=O)NC(=O)C3N2Nc2ccccn2)cc1 (configuration not stated)
[out] 0.791

[in] What does the data say about its z-score? Entry: O=C1OCCC/C=C\[C@H]2OC34C=CCN(Cc5ccccc5)C(=O)[C@H]3N(CCCCCO)C(=O)[C@@H]4C12 (some centres not stated)
[out] -0.099

----------
test: small-molecule microarray binders of probe aDKK1, primary screen, biochemical, biotinylated probe, 635/667 nm fluorescence (AID 1099); settings: higher = more signal;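 note: score merges 667nm spot fluorescence with signal to noise across triplicate slides; reference of the scale not given here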
attribute measured: composite z-score
Hey, just send me the number, nothing else.

[in] Look up composite z-score: "O=C1O[C@H](c2ccccc2)[C@H](c2ccccc2)N2[C@H]1[C@@H](C(=O)NC[C@H](O)c1ccccc1)[C@]1(C(=O)Nc3ccc(C#CCCO)cc31)[C@H]2c1ccccc1OCCO"
[out] -0.232

[in] Value lookup for composite z-score; key = "CCOC(=O)C[C@H]1[C@H](OC(=O)c2ccc(-c3ccccc3)cc2)[C@@H](NC(=O)c2ccc3ccccc3c2)c2cc(OCCCO)ccc2N1C(=O)c1ccccc1"
[out] -0.393

[in] Recorded composite z-score of "C=CC[C@]1(C(=O)N(C)C)COC(c2ccc(OCCCO)cc2)=N1" , please.
[out] 0.98

[in] Which composite z-score value is on record for "NC(=O)[C@@]1(CCS(=O)(=O)c2ccccc2)COC(c2ccc(OCCCO)cc2)=N1" ?
[out] 0.628

[in] Would you kindly share the measured composite z-score for "[N-]=[N+]=NCc1ccccc1C[C@]1(C(=O)N2CCCCC2)N=C(c2ccc(OCCCO)cc2)O[C@H]1c1ccccc1" ?
[out] 0.484

[in] // query composite z-score value for entry C=CCC(OC(C)=O)[C@@H]1[C@@H](N(Cc2cc3ccccc3o2)C(=O)Cc2ccc(OC)cc2)c2cc(OCCCO)ccc2N1C(=O)Cc1ccc(OC)cc1 (some centres not stated)
[out] -0.0082

[in] So what's the measured composite z-score for this one? "CO[C@H]1O[C@H](CO)[C@@H](OC(=O)Nc2ccccc2)[C@@H]2OC(=O)[C@H](Cc3ccccc3)C/C=C/C[C@@H](Cc3ccccc3)C(=O)O[C@@H]12"
[out] 0.273

----------
I'd be grateful if you could share measured composite z-score for these entries.
assay: small-molecule binders of probe aLefty1, primary screen, biochemical, small-molecule microarray, 635/667 nm fluorescence (AID 1153); details: higher = more signal;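 note: score merges spot fluorescence with signal-to-noise ratio from the scanned slide images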
I'd appreciate a reply containing only the number, no unit.

[in] Would you kindly share the measured composite z-score for C[C@@H](OCc1ccccc1)C1NC(=O)[C@@]23C(=O)N[C@@H](Cc4ccccc4)C2[C@H](C)[C@@]2(C)O[C@H]2C3/C=C/C/C=C\CNC(=O)[C@H](Cc2ccccc2)NC1=O (some centres undefined) ?
[out] -0.0544

[in] For the molecule "CCCCC(=C=CC[C@@H](O)c1cccc(OCCO)c1)CCO" , what composite z-score is on record?
[out] -0.142

[in] # query: composite z-score of entry "CC(C)C[C@@H]1NC(=O)[C@@H]2C[C@H](C(=O)NCCCC[N+](C)(C)C)[C@H](c3ccc(O)cc3)N2C1=O"
[out] -0.0145

[in] Please report the recorded composite z-score for CC[C@H](C)C(=O)O[C@H]1CC[C@]2(C)C3=C(CCC2C1(C)C)[C@]1(C)CC[C@H]([C@H](C)CCCC(C)C)[C@@]1(C)CC3 (some centres undefined) .
[out] -0.142

[in] Requested read-out: composite z-score. Entry: "CN(C)CCCC[C@@H]1NC(=O)[C@@H]2C[C@H](C(=O)NCCCCCCNC(=O)CS)[C@H](c3cccc(OCCO)c3)N2C1=O"
[out] -0.416

[in] For the molecule "C=CCN1C(=O)[C@]2(O[C@H](CCO)[C@@H]([Si](C)(C)c3ccc(OC)cc3)[C@@H]2C)c2ccccc21" , what composite z-score is on record?
[out] -0.33

[in] Which measured composite z-score value corresponds to "CC(C)C(=C=CC[C@@H](O)c1ccccc1OCCO)C[C@@H](O)c1cc(Cl)cc(Cl)c1O" ?
[out] 0.0004

[in] // lookup composite z-score for "C=CC[C@]1(C(=O)OC)N=C(c2ccc(OCCCO)cc2)O[C@H]1c1ccccc1N=[N+]=[N-]"
[out] 1.06

[in] I would be grateful if you could share the reported composite z-score for CC=CC(O)C1C=CC2C(=O)N(C)C(=O)C2N1NC(=O)OC(C)(C)C (centres undefined) .
[out] 0.277

[in] // query composite z-score value for entry "COc1ccc(CCNC(=O)[C@@]2(Sc3ccc(C)cc3)CC(=O)N(Cc3cc(C(F)(F)F)cc(C(F)(F)F)c3)[C@@H]2c2ccc(CO)cc2)cc1"
[out] 0.469

[in] State the recorded composite z-score for this entry: "COc1ccc(CCNC(=O)[C@@]2(C)c3ccccc3C(=O)N(Cc3cc(C(F)(F)F)cc(C(F)(F)F)c3)[C@H]2c2ccc(CO)cc2)cc1"
[out] -0.216

[in] What value of measured composite z-score is listed for "COC(=O)[C@@]1(Cc2ccc(F)cc2)[C@H]2c3cc(C(=O)N(C)C)n(CCn4cc([N+](=O)[O-])nc4C)c3C[C@H]2CN1C(=O)c1ccccc1" ?
[out] 0.0861

[in] Name the recorded composite z-score for "CO[C@H]1O[C@H](CO)[C@@H](OC(=O)Nc2ccccc2)[C@@H]2OC(=O)[C@H](Cc3ccccc3)C/C=C/C[C@@H](Cc3ccccc3)C(=O)O[C@@H]12" .
[out] 0.302

[in] Tell me the measured composite z-score of C=CCC(OC(C)=O)[C@@H]1[C@@H](N(Cc2ccc(-c3cccc(C(F)(F)F)c3)o2)C(=O)Cc2ccc(F)cc2)c2cc(OCCCO)ccc2N1C(=O)c1ccc2ccccc2c1 (some centres undefined) , please.
[out] 0.0732
